experimentalSystem: BRD4 long isoform (Homo sapiens, UniProt O60885)
Construct: endogenous in cells; host or cells: MDA-MB-468
experiment: BRD4 degradation assay (Western blot, MDA-MB-468 cells), long isoform
Assay type: cell-based
measurementParameters: 24 h, 1 μM, MDA-MB-468, n = 2
Protocol: BRD4 Degradation Assay Protocol Summary MDA-MB-468 cells were cultured routinely in DMEM supplemented with 10% heat inactivated FBS and 1% Penicillin-Streptomycin (Thermofisher Scientific) at 37° C. 5% CO2. […] Lysates were clarified by centrifugation at 13,000 RPM for 10 minutes and the protein concentration of the resulting supernatants determined by BCA assay (ThermoFisher Scientific) as per manufacturer's instructions. […]
Reported % Mean Degradation of BRD4 values for a set of molecules

Examples with their reported % Mean Degradation of BRD4 follow.
Cc1sc2c(c1C)C(c1ccc(Cl)cc1)=N[C@@H](CC(=O)NCC(=O)NCCNC(=O)[C@@]1(C)CCCC[C@H]1C(=O)N1CCc3c(Cl)ccc(OCc4nnn(C)c4C)c3[C@H]1CN1CC3(CC3)CC1=O)c1nnc(C)n1-2 [Comparative Example 1, reference compound] | 18%
Cc1sc2c(c1C)C(c1ccc(Cl)cc1)=N[C@@H](CC(=O)NCCC(=O)NCCOCc1c(COc3ccc(Cl)c4c3[C@@H](CN3CC5(CC5)CC3=O)N(C(=O)[C@@H]3CCCC[C@]3(C)C(=O)O)CC4)nnn1C)c1nnc(C)n1-2 [Example 4] | 26%
Cc1sc2c(c1C)C(c1ccc(Cl)cc1)=N[C@@H](CC(=O)NCC(=O)NCCOCc1c(COc3ccc(Cl)c4c3[C@@H](CN3CC5(CC5)CC3=O)N(C(=O)[C@@H]3CCCC[C@]3(C)C(=O)O)CC4)nnn1C)c1nnc(C)n1-2 [Example 3] | 80%
Cc1sc2c(c1C)C(c1ccc(Cl)cc1)=N[C@@H](CC(=O)NCC(=O)NCCn1nnc(COc3ccc(Cl)c4c3[C@@H](CN3CC5(CC5)CC3=O)N(C(=O)[C@@H]3CCCC[C@]3(C)C(=O)O)CC4)c1C)c1nnc(C)n1-2 [Example 1] | 101%

For the next question, use this molecule.
Indicate its recorded % Mean Degradation of BRD4; the molecule in question is Cc1sc2c(c1C)C(c1ccc(Cl)cc1)=N[C@@H](CC(=O)NCCOCCNC(=O)[C@@]1(C)CCCC[C@H]1C(=O)N1CCc3c(Cl)ccc(OCc4nnn(C)c4C)c3[C@H]1CN1CC3(CC3)CC1=O)c1nnc(C)n1-2 [Comparative Example 2, reference compound]
3%
